- TARGET OR TEST SYSTEM: HLA-B*46:01
- PROTOCOL: IEDB peptide-MHC binding, purified MHC/competitive/fluorescence; filed as Kd, often an IC50 or EC50 that approximates it; bounds were set here for any values at or beyond the usual limits of such assays
- CONDITION SUMMARY: source organism: Giardia lamblia ATCC 50803
MEASURED METRIC: Kd (nM)

SEQUENCE CHAIN	VALUE RELATION SIGN	RESULT
TMNSRYYLV	≥	20000
YMRERFEPM	=	21.8
MLMFITSSH	=	273

====

- TARGET OR TEST SYSTEM: HLA-B*07:02
- PROTOCOL: IEDB peptide-MHC binding, purified MHC/competitive/radioactivity; filed as Kd, often an IC50 or EC50 that approximates it; bounds were set here for any values at or beyond the usual limits of such assays
- CONDITION SUMMARY: source organism: Dengue virus 4 Philippines/H241/1956
Recorded Kd for the following sequences
MEASURED METRIC: Kd (µM)

SEQUENCE CHAIN	TARGET OR TEST SYSTEM	MEASURED METRIC	RESULT
MPVMKRYSAP	HLA-B*07:02	Kd	9.34
YPLAIPVTM	HLA-B*07:02	Kd	0.0446

meta.source: the Immune Epitope Database (IEDB)
